The reader will find reported gcPBM binding intensity (ln) values listed item by item below.
test system: PfHDP1 homeodomain (GST-tagged); assay: gcPBM binding intensity (ln(normalized median fluorescence intensity)); higher = stronger DNA binding
In all, about 25,000 sequences were measured (“ln(normalized median fluorescence intensity)”: median about 6.7, highest 2% from about 10 on). The list comes from a sample in which the highest values are over-represented; it also holds close analogues and randomly drawn sequences.

For record TAAGAAATAAATAGTACACACATAGACACCCACCCA [CACACA_site8429] the listed gcPBM binding intensity (ln) is 7.64

The recorded gcPBM binding intensity (ln) for entry CCATTAAGACACATTGCACACGTGCACCCATAGAAA [CACACA_site4388] equals 10.2

Per the records, this sequence ( TACACCCATAGACACACACACACGCATAAAAAAAAA [CACACA_site8428] ) has gcPBM binding intensity (ln) equal to 6.85

Lab note: measured gcPBM binding intensity (ln) of TAAATTATAATATGCACACAAAATGTTATATTAAAA [CACACA_site376] was 9.55

According to the records, this sequence TTAACTTTTTTATATGCACACATAAACAAGGATATA [CACACA_site8932] displays gcPBM binding intensity (ln) of 10.1

// recorded gcPBM binding intensity (ln) for GTGCATATATGATATACACACAATATAATAGTATGT [CACACA_site2460] : 7.18

Lab book: gcPBM binding intensity (ln) of TTTTTTTTTTTTTTTGTGCACAATATAATTTTTAAT [GTGCAC_site9747] noted as 10.8

Memo: ATTTGTATTGTATATGCACACATAGAACACTTTTTT [CACACA_site9373] , reported gcPBM binding intensity (ln): 9.69

For reference, reported gcPBM binding intensity (ln) for TTTAATTATTAGTGTGCACACAACTATGAGTTTTTA [CACACA_site8997] stands at 10.8

Consider AATATATATATTAGAGTGCACATAATTATTTGCTAA . Its measured gcPBM binding intensity (ln) is 8.88

Quick note, gcPBM binding intensity (ln) for TATTTATTTTTTTTTGTGCACTTAATATAATCTTAC landed at 9.51

Summary for this sequence, ATTAATAATGAGTTATGTACATACATATTTTAAGAT [XGTACX_site7543] : gcPBM binding intensity (ln) is 6.75

What the record says about ATATCTATAATAAATACACACATTTATATAGATAAA [CACACA_site7518] : gcPBM binding intensity (ln) is 6.38

Data origin, for the record: the supplement of paper PMC11417369
